- Tested on: LXFL 529 NSCLC
- assay.info: NCI tumour cell line growth inhibition, 48 h
For each entry below, report its TGI value.
Answers are plain numbers, in µM.

Example entries begin here.
1. CCc1cc(Cc2cc(CC)c(NC(=O)C3=CC(=O)CC(c4ccc(OC)cc4)O3)c(CC)c2Cl)c(Cl)c(CC)c1NC(=O)C1=CC(=O)CC(c2ccc(OC)cc2)O1 (configuration not stated)    31.9
2. CC(SC1=CC(=O)c2c(Cl)ccc(O)c2C1=O)C(=O)O (configuration not stated)    29.5
3. O=C1/C(=C/c2cccc([N+](=O)[O-])c2)COc2ccccc21    7.79
4. CN1C(c2ccccc2)CC(=Nc2ccccc2)CC1c1ccccc1 (configuration not stated)    16.4

Turning now to a further molecule:
Field request: TGI | item: COc1ncnc2c(NC3OC(CO)C(O)C3O)ncnc12 (configuration not stated) 83.4

---

- System: CAKI-1 renal
- assay.info: NCI tumour cell line growth inhibition, 48 h; in the data active = GI50 below about 0.43 µM; inactive = the rest
Entry note: the call must match one of active, inactive

1. COc1cc2c(/C=C3/C(=O)Nc4ccccc43)c(Cl)n(Cc3ccccc3)c2cc1C    inactive
2. N#C/C(=C\c1cn(-c2ccccc2)c2ccccc12)C(=O)O    inactive
3. O=[N+]([O-])c1cccc(-c2nc3sccn3c2-c2ccnc(NCCCNS(=O)(=O)c3ccc(F)cc3)n2)c1    inactive
4. N#Cc1nc(-c2cccc(Br)c2)cc(-c2ccc(Nc3nc(N4CCCCC4)nc(N4CCCCC4)n3)cc2)c1N    inactive
5. CCCCCCN1C(=O)/C(=c2\sc3n(c2=O)C2C(NN=3)N(CC)C(=O)N2CC)c2ccccc21 (stereo not drawn)    inactive

Please share the test call associated with `COc1ccc(/C=C/C(=O)c2ccc(Nc3ncnc4ccccc34)cc2)cc1OC` . inactive

Please share the test call associated with `Cc1c(C(=O)/C=C/c2ccc(O)cc2)nnn1-c1ccnc2c(C(F)(F)F)cccc12` . inactive

Please share the test call associated with COc1cc(C)cc2c1OC(c1ccccc1)CC2=O (stereo not drawn) . inactive

Please share the test call associated with `CCN(CC)c1ccc(/C=N/NC(=O)c2ccc(Nc3ccnc(C(F)(F)F)c3)cc2)c(O)c1` . active

Please share the test call associated with `FC(F)(F)c1ccc2c(c1)N(CCCN1CCN(C3CC3)CC1)c1ccccc1S2` . inactive

Please share the test call associated with Cc1cccc2c3c(sc12)C(c1ccc(Cl)cc1)C(C#N)=C(/N=C/c1ccc(Cl)cc1)O3 (stereo not drawn) . active

Please share the test call associated with `COc1ccc(NC2=C(Sc3nc(C)cc(C)n3)C(=O)N(Cc3ccccc3)C2=O)cc1Cl` . inactive

Please share the test call associated with `COc1n[n+]([O-])c(C)cc1[N+](=O)[O-]` . inactive

---

- Test system: OVCAR-5 ovarian
- assay.info: NCI tumour cell line growth inhibition, 48 h
For each entry below, report its TGI value.
Answers are plain numbers, in µM.

1. CC(C)=CCC/C(C)=C/Cc1cc(/C=C/c2cc(O)c(CC=C(C)C)c(O)c2)cc(O)c1O    15.4
2. CCCOc1ccc(/C=C\c2cc(OC)c(OC)c(OC)c2)cc1    60.9
3. Clc1cc(Cl)cc(N2N=C(c3cccc(Nc4ccncc4)c3)CC2c2ccccc2)c1 (stereo not given)    8.74

Turning now to a further compound:
Field request: TGI | item: `C/C(=N\NC(=S)N(C)C)c1ncc[nH]1` 6.19

---

- System: MDA-MB-435
- assay.info: NCI tumour cell line growth inhibition, 48 h
metric.name: TGI

1) FC(F)(F)c1ccc2c(c1)N(CCCN1CCN(C3CC3)CC1)c1ccccc1S2    27.6 µM
2) S=C(Nc1ccccc1)c1ccccn1    > 100 µM
3) O=C(Nc1ccccc1Cl)c1cnc2ccc(C3CCNCC3)cn12    > 100 µM
4) Clc1nc(Cl)c2ncn(C/C=C\Cn3cnc4c(Cl)nc(Cl)nc43)c2n1    3.77 µM
5) CC(=O)OCC(OC(C)=O)C(OC(C)=O)C(/C=N/N(C(C)=O)S(=O)(=O)c1ccc(/C=C2\NC(=O)NC2=O)cc1)OC(C)=O (configuration not stated)    > 100 µM

The following molecules each have a reported value; give each one's TGI.
1. CN(C(=O)C1=CCCCCC1)c1ccccc1I
2. COc1ccc(CSCc2cc(OC)c(OC)c(OC)c2)cc1
3. O=C(O)C(/C=C/c1ccco1)=N\Nc1nc(-c2ccc(Cl)cc2)cs1
4. CC1CN=C(NCc2ccccc2)S1 (configuration not stated)
5. O=C1N=C2c3c(sc4c3CCCC4)N=CN2C1N=Nc1ccc(Cl)cc1 (configuration not stated)
6. Cc1sc2ncnc(Sc3nc4ccccc4[nH]3)c2c1C

1: > 100 µM; 2: > 81.3 µM; 3: > 50 µM; 4: > 100 µM; 5: 58.1 µM; 6: > 100 µM

Field request: TGI | item: `N#C/C(=C\c1cn(-c2ccccc2)c2ccccc12)C(=O)O` > 100 µM

---

- Test system: ACHN renal
- assay.info: NCI tumour cell line growth inhibition, 48 h
metric.name: TGI (µM)
Give bare numbers, in µM.

1) Cc1c(-c2ccccc2)c(-c2ccc(OCCN(C)C)cc2)n2ccccc12    27.8

Field request: TGI | item: `Oc1ccccc1C=Nc1ccc(Oc2ccc(Cl)cc2)c(Cl)c1` 88.3

---

- System: T-47D breast
- assay.info: NCI tumour cell line growth inhibition, 48 h; in the data active means GI50 below about 0.43 µM; inactive means the rest
Entry note: the call must match one of active, inactive

Use these answered entries as a reference point.
1) CN(C)c1cccc2[nH]c(-c3[nH]ncc3Nc3ccnc(N)n3)nc12    active
2) COC(=O)Nc1ccc2ccc3c(NC(=O)OC)ccc4ccc1c2c43 (tested in a mixture with another compound)    inactive
3) O=C(Oc1ccccc1)c1cc(O)c(O)c(O)c1    inactive
4) Cc1ccc(NC(=O)c2ccnc(C(F)(F)F)c2)cc1-c1cc(OCCO)nc(N2CCOCC2)c1    inactive
5) O=C(CNC(=O)c1cccc2ccccc12)Nc1ccccc1Oc1cccc(O)c1    inactive
6) S=C(Nc1ccccc1)c1ccccn1    inactive
7) O=C(Nc1ccccc1Cl)c1cnc2ccc(C3CCNCC3)cn12    inactive
8) CCN(CC)CCC(=O)Nc1cccc2c1C(=O)c1c(c(O)c3ccccc3c1O)C2=O    inactive

Please share the test call associated with `COc1cc2c(cc1OCCCCCOc1cc(-c3ccc(F)cc3)nc(C)n1)N=C[C@@H]1CCCN1C2=O` . inactive

Please share the test call associated with `COc1ccc(-c2ccc(/C=N/n3cn[nH]c3=S)o2)c([N+](=O)[O-])c1` . inactive

Please share the test call associated with `C[C@]12CC[C@H]3[C@@H](CC=C4C[C@@H](O)CC[C@@]43C)[C@@H]1C/C(=C\c1cccc(OCCN3CCOCC3)c1)[C@@H]2O` . inactive

---

- Tested on: NCI-H226 lung
- assay.info: NCI tumour cell line growth inhibition, 48 h
metric.name: TGI

1) C[C@]12CC[C@H]3[C@@H](CCC4=CC(=O)CC[C@@H]43)[C@@H]1CC[C@@H]2OC1(O)C(=O)c2ccccc2C1=O    > 100 µM
2) NC(=S)N/N=C/c1cc(CN2CCOCC2)c(N)cn1    45.8 µM
3) CCCOc1ccc(/C=C\c2cc(OC)c(OC)c(OC)c2)cc1    > 100 µM
4) COc1ccc(C2CC(=O)Nc3c2c(C)nn3-c2nc3ccccc3[nH]2)cc1 (configuration not stated)    7.9 µM
5) Cc1cc2c(C(C)C)c(O)c(O)c3coc(/c1=c1/c(C)cc4c(C(C)C)c(=O)c(=O)c5coc1c45)c32    22.9 µM
6) COc1ccc2c(c1)c(Cc1c(C)n(C)c3ccc(OC)cc13)c(C)n2C    > 100 µM
7) Cc1cc2c(cn1)C(=O)OCC2    > 100 µM
8) COc1ccc(CSCc2cc(OC)c(OC)c(OC)c2)cc1    > 100 µM

The following molecules each have a reported value; give each one's TGI.
1. Cc1sc2ncnc(NCCc3ccccc3)c2c1C
2. CN1CC=C(OP(=O)(NCc2ccccc2)N(CCCl)CCCl)CC1 (configuration not stated)
3. O=S(=O)(CC1=NC2C=CC=CC2N=C1)NCc1ccccc1 (configuration not stated)
4. CC1CN=C(NCc2ccccc2)S1 (configuration not stated)
5. O=c1cc/c(=N\Nc2ccccc2)c(=O)/c1=N/Nc1ccccc1
6. CCOc1ccc(C2c3[nH]c4ccccc4c3CCN2C(=O)c2cccs2)cc1 (configuration not stated)

42.3 µM
> 100 µM
> 100 µM
> 100 µM
> 50 µM
43.4 µM

---

- Test system: HT29 colon
- assay.info: NCI tumour cell line growth inhibition, 48 h
metric.name: TGI (µM)
Give bare numbers, in µM.

1. CC(=O)OCC(=O)[C@@]1(O)[C@H](C)C[C@H]2[C@@H]3C=C(C)C4=Cc5c(cnn5-c5ccc(F)cc5)C[C@]4(C)[C@H]3[C@@H](O)C[C@@]21C    3.07

Field request: TGI | item: `CC(C)=CCC/C(C)=C/Cc1cc(/C=C/c2cc(O)c(CC=C(C)C)c(O)c2)cc(O)c1O` 13.6
